Listing of recorded growth inhibition by entry.
assayText: NCI Yeast Anticancer Drug Screen. Data for the sgs1 mgt1 strain (AID 161);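 further: 0% = growth of cultures given vehicle only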
experimentalConditions: S. cerevisiae sgs1 mgt1 strain, at 50.0 µM, active compounds read high
The panel holds about 79,000 compounds, 15% with a hit somewhere; the sample as a whole holds those more often.
Report only the number, with the unit % understood.

compound | growth inhibition / %
O=c1[nH]cnc2c1CNC2 | -10.4

// next entry
So what's the measured growth inhibition for this one? `CCCCCCOC(=O)CCCCCC1CCCCC1`
2.3

----------
assayText: NCI Yeast Anticancer Drug Screen. Data for the rad50 strain (AID 155);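 further: 0% = growth of vehicle-only cultures of the same strain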
experimentalConditions: S. cerevisiae rad50 strain growth inhibition; at 50.0 µM; active compounds read high
This is part of a sample that, as a whole, favours compounds with a hit. Of some 79,000 tested, about 15% had one in any assay.
measurementLabel: growth inhibition (%)
Report only the number, with the unit % understood.

compound | growth inhibition, %
C/C=C(\C)C(=O)N/N=C\C=C\c1ccccc1 | -12.2
CC(=O)c1cccc(NC(=O)Oc2ccc(Cl)cc2Cc2ccccc2)c1 | 99.1
CC(=O)OC1CCC2(C)OC(=O)CC2C1 (stereo unspecified) | 2.2
F[Si](c1ccccc1)(c1ccccc1)c1cccc2ccccc12 | 98.7
COc1ccc(C)cc1S(=O)(=O)c1c(Cl)cccc1[N+](=O)[O-] | -5.95

// next entry
So what's the measured growth inhibition for this one? COc1cccc2c1OC(=O)NC2O (stereo unspecified)
-8.35

----------
assayText: NCI Yeast Anticancer Drug Screen. Data for the sgs1 mgt1 strain (AID 161);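 further: 0% = growth of cultures given vehicle only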
experimentalConditions: S. cerevisiae sgs1 mgt1 strain, at 50.0 µM, active compounds read high
The panel holds about 79,000 compounds, 15% with a hit somewhere; the sample as a whole holds those more often.
measurementLabel: growth inhibition (%)
Report only the number, with the unit % understood.

compound | growth inhibition [%]
COC(=O)CCC(=O)C(CC(=O)OC)C(=O)CCC(=O)NCCc1ccccc1 (stereo unspecified) | -41.5
CCOC(=O)c1cc(=O)[nH]c2ccc(OC)cc12 | 2.25
CC(C)(C)CC(C)(C)c1ccc(OCCOc2ccc([N+](=O)[O-])cc2N)cc1 | 41.6

So what's the measured growth inhibition for this one? C=CCC1(/C(=C\CC)CCC)C(=O)NC(=O)N=C1N (stereo unspecified)
10

// next record `CCO/C=C1/N=C(c2cc([N+](=O)[O-])cc([N+](=O)[O-])c2C)OC1=O`
-6.45

// next record `CCOc1c(Cl)c(Cl)c(Cl)c(Cl)c1Cl`
-6.7

----------
assayText: NCI Yeast Anticancer Drug Screen. Data for the mlh1 rad18 strain (AID 175)
experimentalConditions: S. cerevisiae mlh1 rad18 strain growth inhibition; at 50.0 µM; active compounds read high
The panel holds about 79,000 compounds, 15% with a hit somewhere; the sample as a whole holds those more often.
Listing of recorded growth inhibition by entry.
Report only the number, with the unit % understood.

Solved cases (3 shown):
compound | measurementLabel | reportedResult
NC(N)=Nc1nc2ccc(Cl)cc2[nH]1 | growth inhibition | 11
Cc1cc(S(=O)(=O)Nc2nc(N)nc(N3CCOCC3)n2)c(SCC(=O)O)cc1Cl | growth inhibition | 18.2
O=C1NC(=O)C(c2ccc(Cl)cc2)N1 (stereo not drawn) | growth inhibition | -15.2

So what's the measured growth inhibition for this one? `O=c1c2ccccc2n2c(-c3ccccc3O)nnc2n1-c1ccccc1`
18.2

// next record `Cc1cc(C)c2ccccc2n1`
18.1

// next record `N/C=N/O`
22.7

// next record O=C1NN=CN2C(=O)CCC12 (stereo not drawn)
-3.4

// next record `COc1ccc(OCOCOc2ccc(OC)cc2)cc1`
-27.8
